Target: CDK4/ CyclinD1 (Homo sapiens)
Sequence (P11802 whole entry): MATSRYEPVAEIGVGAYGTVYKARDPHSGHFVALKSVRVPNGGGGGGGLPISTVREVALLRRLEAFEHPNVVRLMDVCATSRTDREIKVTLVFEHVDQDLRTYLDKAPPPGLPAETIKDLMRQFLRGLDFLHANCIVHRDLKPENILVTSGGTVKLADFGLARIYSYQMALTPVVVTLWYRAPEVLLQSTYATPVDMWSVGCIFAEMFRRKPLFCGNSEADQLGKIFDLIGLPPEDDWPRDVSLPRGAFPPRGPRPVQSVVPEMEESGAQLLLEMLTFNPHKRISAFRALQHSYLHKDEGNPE
Sequence (P24385 whole entry partner): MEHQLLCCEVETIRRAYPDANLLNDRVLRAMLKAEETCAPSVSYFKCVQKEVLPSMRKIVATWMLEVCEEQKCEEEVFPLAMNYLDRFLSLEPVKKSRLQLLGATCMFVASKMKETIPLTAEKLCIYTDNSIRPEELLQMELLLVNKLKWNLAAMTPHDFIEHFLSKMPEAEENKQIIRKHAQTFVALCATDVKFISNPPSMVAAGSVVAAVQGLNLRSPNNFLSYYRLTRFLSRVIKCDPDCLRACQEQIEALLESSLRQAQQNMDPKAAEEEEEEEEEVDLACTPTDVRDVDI
Assay: KdELECT Kd determination (DiscoveRx)
Conditions: duplicate 11-point dose-response curves
Procedure: G1T38 was profiled at DiscoveRx (Fremont, CA) using their KINOMEscan and scanMAX screening technology. Supplementary Table 1: G1T38 Kinase Interactions primary screen. Inhibitor binding constants (Kd values) were calculated from duplicate 11-point dose-response curves for (1 picture or pasted object on this page, not shown here)
MEASURE: pKd
Give only the number. pKd is defined as minus log10 of concentration in molar units.

Q: Value wanted: pKd (CDK4/ CyclinD1 (Homo sapiens)) of entry CC(C)N1CCN(c2ccc(Nc3ncc4cc5n(c4n3)C3(CCCCC3)CNC5=O)nc2)CC1.Cl.Cl [G1T38]
Result: 9.82
